Numbers sourced from patent EP0311632B1.

Would you mind telling me the reported Surface Tension of Aqueous Solutions of each entry?
Assay: Surface tension of aqueous solutions (Fisher Surface Tensiomat, ring tensiometer)
Type: physicochemical
Conditions: 0.1% solution in distilled water, 25°C.
Reply numerically in dynes/cm, unit not repeated.

Short answer for CCCCCCCCN1CCCC1=O : Surface Tension of Aqueous Solutions was 30.4

Short answer for CCCCCCCCCCN1CCCC1=O : Surface Tension of Aqueous Solutions was 27.5

Short answer for CCCCCCCCCCCCN1CCCC1=O : Surface Tension of Aqueous Solutions was 26.7

Short answer for CCCCCCCCCCCCCCN1CCCC1=O : Surface Tension of Aqueous Solutions was 26.4

====

Test: Surface tension of aqueous solutions (Fisher Surface Tensiomat, ring tensiometer)
Format: physicochemical
Details: 0.001% solution in distilled water, 25°C.
Observed property: Surface Tension of Aqueous Solutions (dynes/cm)
Reply numerically in dynes/cm, unit not repeated.

Short answer for CCCCCCCCCCN1CCCC1=O [N-decyl-2-pyrrolidone] : Surface Tension of Aqueous Solutions was 51.0

Short answer for CCCCCCCCN1CCCC1=O [N-octyl-2-pyrrolidone] : Surface Tension of Aqueous Solutions was 68.4

Short answer for CCCCCCCCCCCCN1CCCC1=O [N-dodecyl-2-pyrrolidone] : Surface Tension of Aqueous Solutions was 29.9

Short answer for CCCCCCCCCCCCCCN1CCCC1=O [N-tetradecyl-2-pyrrolidone] : Surface Tension of Aqueous Solutions was 30.4
